Measured values drawn from patent US12447153B2 for this set.

Quick reference: pIC50 of the listed items.
experimentalTarget: ErbB2 WT (Homo sapiens (Human))
Sequence (P04626 23-1255): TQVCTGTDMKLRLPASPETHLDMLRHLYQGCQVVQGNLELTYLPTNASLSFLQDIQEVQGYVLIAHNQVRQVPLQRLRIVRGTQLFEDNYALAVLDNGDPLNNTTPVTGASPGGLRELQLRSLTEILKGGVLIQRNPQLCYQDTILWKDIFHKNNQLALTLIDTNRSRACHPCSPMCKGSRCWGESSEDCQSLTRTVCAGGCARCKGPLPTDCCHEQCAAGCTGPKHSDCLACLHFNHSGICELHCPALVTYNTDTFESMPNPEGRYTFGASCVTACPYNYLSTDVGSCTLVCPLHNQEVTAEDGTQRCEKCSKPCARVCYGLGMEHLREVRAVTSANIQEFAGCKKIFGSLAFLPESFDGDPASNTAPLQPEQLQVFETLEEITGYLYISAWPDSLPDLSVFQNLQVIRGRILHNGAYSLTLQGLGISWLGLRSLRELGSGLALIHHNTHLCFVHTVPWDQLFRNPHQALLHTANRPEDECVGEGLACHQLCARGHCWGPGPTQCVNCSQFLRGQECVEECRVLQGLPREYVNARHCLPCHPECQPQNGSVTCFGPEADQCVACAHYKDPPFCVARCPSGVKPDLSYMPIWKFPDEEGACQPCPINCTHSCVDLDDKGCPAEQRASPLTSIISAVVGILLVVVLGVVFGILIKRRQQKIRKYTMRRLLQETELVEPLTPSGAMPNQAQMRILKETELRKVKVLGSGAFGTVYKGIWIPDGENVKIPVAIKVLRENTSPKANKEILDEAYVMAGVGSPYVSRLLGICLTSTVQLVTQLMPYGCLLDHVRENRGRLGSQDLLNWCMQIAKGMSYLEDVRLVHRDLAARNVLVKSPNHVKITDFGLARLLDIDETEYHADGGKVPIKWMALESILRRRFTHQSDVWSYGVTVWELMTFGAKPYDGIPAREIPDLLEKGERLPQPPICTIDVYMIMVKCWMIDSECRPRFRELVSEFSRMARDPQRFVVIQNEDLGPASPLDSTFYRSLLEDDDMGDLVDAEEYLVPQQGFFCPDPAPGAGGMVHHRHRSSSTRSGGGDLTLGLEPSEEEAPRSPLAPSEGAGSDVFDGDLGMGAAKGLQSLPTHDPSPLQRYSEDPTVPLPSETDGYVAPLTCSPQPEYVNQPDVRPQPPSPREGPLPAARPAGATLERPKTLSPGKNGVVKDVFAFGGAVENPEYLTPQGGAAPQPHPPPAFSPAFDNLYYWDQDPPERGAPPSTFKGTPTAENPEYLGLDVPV
assay: ErbB Enzyme Assay (HTRF KinEASE-TK), Assay 2
Format: biochemical
conditionLabel: ErbB2 WT enzyme
pIC50: −log10 of the molar value.

molecule: C=CC(=O)N1C[C@H]2CC[C@@H]1C[C@@H]2c1ccc2ncnc(Nc3ccc(Oc4ccn5ncnc5c4)c(C)c3F)c2n1 (single isomer, unassigned) [Example 234]
pIC50: 7.43
--
molecule: C=CC(=O)N1CCN(c2nc3c(Nc4ccc(Oc5ccn6ncnc6c5)c(C)c4F)ncnc3cc2OC)CC1
pIC50: 7.43
--
molecule: C=CC(=O)N1CCC(Oc2ccc3ncnc(Nc4ccc(Oc5ccc6sc(C)nc6c5)c(Cl)c4F)c3n2)CC1
pIC50: 5.00
--
molecule: C=CC(=O)N1CC[C@@H]2C[C@H]1CN2c1ccc2ncnc(Nc3cc(C)c(Oc4ccc5c(c4)ncn5C)cc3F)c2n1
pIC50: 8.17

---

experimentalTarget: ErbB2 with Exon 20 YVMA insertion (HER2-YVMA) (Homo sapiens (Human), UniProt P04626, INS775YVMA)
Sequence (P04626 other isoform, or with tags, fused parts or gaps ins YVMA behind 775): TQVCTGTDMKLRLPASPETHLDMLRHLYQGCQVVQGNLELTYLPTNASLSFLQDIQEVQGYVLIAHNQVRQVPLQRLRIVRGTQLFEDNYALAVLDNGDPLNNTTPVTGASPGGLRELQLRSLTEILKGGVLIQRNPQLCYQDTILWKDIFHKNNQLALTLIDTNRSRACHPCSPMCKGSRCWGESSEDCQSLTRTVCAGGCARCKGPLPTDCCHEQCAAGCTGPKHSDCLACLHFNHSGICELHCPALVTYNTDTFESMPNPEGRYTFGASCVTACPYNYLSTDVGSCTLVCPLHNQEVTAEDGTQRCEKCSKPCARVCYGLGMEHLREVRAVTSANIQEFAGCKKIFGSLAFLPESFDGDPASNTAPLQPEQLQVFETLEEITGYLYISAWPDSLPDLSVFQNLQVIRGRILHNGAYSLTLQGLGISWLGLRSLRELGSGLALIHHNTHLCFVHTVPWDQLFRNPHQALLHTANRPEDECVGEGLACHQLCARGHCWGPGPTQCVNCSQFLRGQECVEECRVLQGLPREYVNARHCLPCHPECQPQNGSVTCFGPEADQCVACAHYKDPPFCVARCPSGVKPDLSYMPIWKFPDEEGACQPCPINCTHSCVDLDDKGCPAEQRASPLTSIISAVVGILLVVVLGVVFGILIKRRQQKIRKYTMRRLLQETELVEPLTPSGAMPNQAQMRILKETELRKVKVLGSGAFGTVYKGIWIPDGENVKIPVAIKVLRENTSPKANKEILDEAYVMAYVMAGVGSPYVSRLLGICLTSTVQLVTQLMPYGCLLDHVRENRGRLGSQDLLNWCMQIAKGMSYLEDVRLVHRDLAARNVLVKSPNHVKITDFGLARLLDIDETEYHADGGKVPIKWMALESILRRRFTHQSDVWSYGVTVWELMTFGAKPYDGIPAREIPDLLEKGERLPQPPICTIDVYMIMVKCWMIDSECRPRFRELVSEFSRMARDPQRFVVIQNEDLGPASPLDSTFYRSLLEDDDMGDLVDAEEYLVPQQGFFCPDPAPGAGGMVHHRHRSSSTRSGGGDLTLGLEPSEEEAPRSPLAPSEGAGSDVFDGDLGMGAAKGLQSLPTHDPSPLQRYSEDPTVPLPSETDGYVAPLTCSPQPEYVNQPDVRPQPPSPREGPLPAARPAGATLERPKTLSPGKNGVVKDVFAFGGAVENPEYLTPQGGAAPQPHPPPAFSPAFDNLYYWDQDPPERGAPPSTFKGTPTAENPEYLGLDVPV
assay: Cellular Phosphorylation Assay, Assay 4 (constitutive ErbB2 phosphorylation, NIH 3T3 cells)
Format: cell-based
conditionLabel: cellular ErbB2 YVMA phosphorylation
Quick reference: IC50 of the listed items.
endpoint: IC50 (µM)

compound: C=CC(=O)N1CCN(c2ccc3ncnc(Nc4cnc(Oc5ccn6ncnc6c5)c(C)c4)c3n2)CC1(C)C
endpoint: IC50
numericResult: 0.0562
//
compound: C=CC(=O)N1CCN(c2ccc3ncnc(Nc4cc(C)c(Oc5ccn6ncnc6c5)cc4F)c3n2)C[C@@H]1CC
endpoint: IC50
numericResult: 0.0385
//
compound: C=CC(=O)N1C[C@@H]2CC(c3ccc4ncnc(Nc5ccc(Oc6ccn7ncnc7c6)c(C)c5F)c4n3)C[C@H]1C2 (stereo partly drawn)
endpoint: IC50
numericResult: 0.0338
//
compound: C=CC(=O)N1C[C@@H]2C[C@H]1C[C@H]2c1ccc2ncnc(Nc3cc(C)c(Oc4ccc5c(c4)ncn5C)cc3F)c2n1
endpoint: IC50
numericResult: 0.019
//
compound: C=CC(=O)N1C[C@H]2C[C@@H]1[C@H](c1ccc3ncnc(Nc4ccc(Oc5cnc6c(c5)ncn6C)c(C)c4)c3n1)C2
endpoint: IC50
numericResult: 0.0204
//
compound: C=CC(=O)N1CCN(c2ccc3ncnc(Nc4ccc(Oc5cnc6c(c5)ncn6C)c(C)c4)c3n2)CC1(C)C
endpoint: IC50
numericResult: 0.009

---

experimentalTarget: MDR1 (P-gp) (Homo sapiens (Human))
Sequence (P08183 whole entry): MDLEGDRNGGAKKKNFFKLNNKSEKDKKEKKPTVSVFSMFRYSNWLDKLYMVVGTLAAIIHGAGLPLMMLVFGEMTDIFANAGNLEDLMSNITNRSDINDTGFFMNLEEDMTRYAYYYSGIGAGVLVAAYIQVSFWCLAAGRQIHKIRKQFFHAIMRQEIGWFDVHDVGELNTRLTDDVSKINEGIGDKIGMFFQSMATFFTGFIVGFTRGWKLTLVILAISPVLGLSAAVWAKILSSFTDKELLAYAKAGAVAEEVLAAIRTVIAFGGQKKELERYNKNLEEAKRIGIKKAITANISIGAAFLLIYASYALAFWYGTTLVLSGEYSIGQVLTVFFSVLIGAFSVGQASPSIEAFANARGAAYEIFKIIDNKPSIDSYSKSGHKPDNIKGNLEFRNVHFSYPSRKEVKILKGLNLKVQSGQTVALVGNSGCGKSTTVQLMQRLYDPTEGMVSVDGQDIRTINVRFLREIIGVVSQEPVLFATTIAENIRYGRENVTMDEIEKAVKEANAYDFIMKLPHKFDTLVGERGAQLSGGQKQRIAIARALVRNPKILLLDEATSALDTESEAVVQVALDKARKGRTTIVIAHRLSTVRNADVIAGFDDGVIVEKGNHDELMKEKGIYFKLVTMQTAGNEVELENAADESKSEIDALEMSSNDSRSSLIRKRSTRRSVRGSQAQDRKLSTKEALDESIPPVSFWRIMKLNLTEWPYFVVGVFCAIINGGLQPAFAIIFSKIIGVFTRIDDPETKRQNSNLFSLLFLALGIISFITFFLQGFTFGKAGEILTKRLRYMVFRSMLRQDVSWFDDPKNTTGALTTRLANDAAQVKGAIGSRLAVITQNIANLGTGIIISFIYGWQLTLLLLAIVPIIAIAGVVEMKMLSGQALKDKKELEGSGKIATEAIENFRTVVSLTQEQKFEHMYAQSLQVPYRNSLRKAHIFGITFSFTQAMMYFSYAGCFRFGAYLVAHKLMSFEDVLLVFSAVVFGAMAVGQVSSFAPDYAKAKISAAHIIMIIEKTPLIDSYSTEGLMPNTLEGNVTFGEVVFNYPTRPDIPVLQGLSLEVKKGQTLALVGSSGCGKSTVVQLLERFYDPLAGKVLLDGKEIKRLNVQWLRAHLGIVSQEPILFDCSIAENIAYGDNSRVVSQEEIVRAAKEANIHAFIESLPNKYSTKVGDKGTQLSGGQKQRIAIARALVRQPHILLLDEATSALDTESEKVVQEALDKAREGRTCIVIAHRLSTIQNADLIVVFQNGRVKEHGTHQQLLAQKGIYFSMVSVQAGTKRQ
assay: in vitro
conditionLabel: pig, LLC-PK1
endpoint: efflux ratio at 2 h, 1 µM

molecule: C=CC(=O)N1CCC(Oc2ccc3ncnc(Nc4ccc(Oc5ccc6cn(C)nc6c5)c(Cl)c4F)c3n2)CC1 [Example 9]
numericResult: 1.7
--
molecule: C=CC(=O)N1CCC(Oc2ccc3ncnc(Nc4ccc(Oc5cc6nn(C)cc6cn5)c(C)c4)c3n2)CC1 [Example 52]
numericResult: 34.5
--
molecule: C=CC(=O)N1CCCN(c2ccc3ncnc(Nc4ccc(Oc5ccc6c(c5)ncn6C)c(C)c4F)c3n2)CC1(C)C [Example 69]
numericResult: 3
--
molecule: C=CC(=O)N1C[C@H]2CC[C@@H](C1)[C@@H]2c1ccc2ncnc(Nc3cc(C)c(Oc4ccn5ncnc5c4)cc3F)c2n1 [Example 222]
numericResult: 1.3

---

experimentalTarget: ErbB2 WT (Homo sapiens (Human))
assay: ErbB Enzyme Assay (HTRF KinEASE-TK), Assay 2
Format: biochemical
conditionLabel: ErbB2 WT enzyme
pIC50: −log10 of the molar value.
endpoint: pIC50

molecule: C=CC(=O)N1CCN(c2ccc3ncnc(Nc4ccc(Oc5ccc6c(c5)ncn6C)c(C)c4)c3n2)CC1 [Example 105]
numericResult: 7.92
--
molecule: Cc1c(Oc2ccn3ncnc3c2)ccc(Nc2ncnc3ccc(N4CCN(C#N)C(C)(C)C4)nc23)c1F [Example 245]
numericResult: 7.08
--
molecule: C=CC(=O)N1C[C@H]2C[C@H](c3ccc4ncnc(Nc5cc(C)c(Oc6ccn7ncnc7c6)cc5F)c4n3)C[C@H]2C1 [Example 201]
numericResult: 7.17
--
molecule: C=CC(=O)N1CCC[C@@H](c2ccc3ncnc(Nc4cc(C)c(Oc5ccc6c(c5)ncn6C)cc4F)c3n2)CC1 (racemic) [Example 135]
numericResult: 6.92
--
molecule: C=CC(=O)N1CCCN(c2ccc3ncnc(Nc4ccc(Oc5ccn6ncnc6c5)c(Cl)c4)c3n2)CC1 [Example 99]
numericResult: 7.72
--
molecule: C=CC(=O)N1CCN(c2nc3c(Oc4ccc(Oc5ccc6c(c5)ncn6C)c(C)c4)ncnc3cc2OC)CC1 [Example 41]
numericResult: 6.89
--
molecule: C=CC(=O)N1CCC(Oc2ccc3ncnc(Nc4ccc(Oc5ccn6ccnc6c5)c(C)c4)c3n2)CC1 [Example 15]
numericResult: 7.34
--
molecule: C=CC(=O)N1CCN(c2ccc3ncnc(Nc4ccc(Oc5ccc6c(c5)ncn6C)c(C)c4F)c3n2)CCC1(C)C [Example 68]
numericResult: 6.18
--
molecule: C=CC(=O)N1CCN(c2nc3c(Nc4ccc(Oc5ccn6ncnc6c5)c(C)c4F)ncnc3cc2Cl)CC1(C)C [Example 160]
numericResult: 6.29
--
molecule: C=CC(=O)N1CCN(c2nc3c(Nc4ccc(Oc5ccn6ncnc6c5)c(C)c4F)ncnc3cc2Cl)C[C@@H]1C [Example 149]
numericResult: 6.49
--
molecule: C=CC(=O)N1CC[C@H]2CN(c3ccc4ncnc(Nc5ccc(Oc6ccn7ncnc7c6)c(Cl)c5F)c4n3)C[C@H]21 [Example 49]
numericResult: 7.73
--
molecule: C=CC(=O)N1CCC(Oc2nc3c(Nc4ccc(Oc5ccc6cn(C)nc6c5)c(C)c4)ncnc3cc2OC)CC1 [Example 157]
numericResult: 6.68
--
molecule: C=CC(=O)N1CC2CC(C1)N2c1ccc2ncnc(Nc3ccc(Oc4ccn5ncnc5c4)c(C)c3F)c2n1 [Example 46]
numericResult: 6.93
--
molecule: C=CC(=O)N1[C@@H]2CC[C@H]1C[C@@H](c1ccc3ncnc(Nc4ccc(Oc5ccn6ncnc6c5)c(C)c4)c3n1)C2 [Example 215]
numericResult: 7.53
--
molecule: C=CC(=O)N1CCC[C@@H](c2ccc3ncnc(Nc4ccc(Oc5ccn6ncnc6c5)c(C)c4F)c3n2)CC1 (single isomer, unassigned) [Example 209]
numericResult: 7.79
--
molecule: C=CC(=O)N1CC[C@H](c2ccc3ncnc(Nc4ccc(Oc5ccn6ncnc6c5)c(C)c4F)c3n2)CC12CC2 (single isomer, unassigned) [Example 174]
numericResult: 7.62
--
molecule: C=CC(=O)N1[C@@H]2CC[C@H]1C(c1ccc3ncnc(Nc4ccc(Oc5ccn6ncnc6c5)c(C)c4)c3n1)C2 (single isomer, unassigned) [Example 232]
numericResult: 7.98
--
molecule: C=CC(=O)N1CCCN(c2nc3c(Nc4ccc(Oc5ccn6ncnc6c5)c(C)c4F)ncnc3cc2OC)CC1 [Example 150]
numericResult: 7.78
--
molecule: C=CC(=O)N1C[C@H]2C[C@@H]1[C@H](c1ccc3ncnc(Nc4ccc(Oc5ccc6c(c5)ncn6C)c(C)c4F)c3n1)C2 (racemic) [Example 202]
numericResult: 7.81
--
molecule: C=CC(=O)N1C[C@H](c2ccc3ncnc(Nc4cc(C)c(Oc5ccc6c(c5)ncn6C)cc4F)c3n2)CCC1(C)C (racemic) [Example 141]
numericResult: 6.75
--
molecule: C=CC(=O)N1CCN(c2ccc3ncnc(Nc4ccc(Oc5ccn6ncnc6c5)c(C)c4F)c3n2)C[C@H]1C [Example 89]
numericResult: 7.12
--
molecule: C=CC(=O)N1CC2CC(C1)N2c1ccc2ncnc(Nc3cc(Cl)c(Oc4ccn5ncnc5c4)cc3F)c2n1 [Example 45]
numericResult: 6.65
--
molecule: C=CC(=O)N1CCC(Oc2nc3c(Nc4ccc(Oc5ccn6ncnc6c5)c(C)c4F)ncnc3cc2OC)CC1 [Example 40]
numericResult: 7.95
--
molecule: C=CC(=O)N1CCN(c2ccc3ncnc(Nc4ccc(Oc5ccc6c(c5)ncn6C)c(C)c4F)c3n2)CC1(C)C [Example 75]
numericResult: 7.19
--
molecule: C=CC(=O)N1[C@H](C)CN(c2ccc3ncnc(Nc4ccc(Oc5ccc6c(c5)ncn6C)c(C)c4F)c3n2)C[C@@H]1C [Example 115]
numericResult: 7.26
--
molecule: CC#CC(=O)N1[C@@H]2CC[C@H]1C[C@@H](c1ccc3ncnc(Nc4cc(C)c(Oc5ccn6ncnc6c5)cc4F)c3n1)C2 [Example 208]
numericResult: 6.76

---

Quick reference: pIC50 of the listed items.
experimentalTarget: ErbB2 WT (Homo sapiens (Human))
assay: ErbB Enzyme Assay (HTRF KinEASE-TK), Assay 2
Assay type: biochemical
conditionLabel: ErbB2 WT enzyme
pIC50: −log10 of the molar value.

compound: C=CC(=O)N1CCC(c2ccc3ncnc(Nc4ccc(Oc5ccc6c(c5)ncn6C)c(C)c4)c3n2)C(C)C1 (stereo not shown)
experimentalTarget: ErbB2 WT (Homo sapiens (Human))
pIC50: 7.32
--
compound: C=CC(=O)N1CC[C@@H]2CN(c3nc4c(Nc5ccc(Oc6ccn7ncnc7c6)c(C)c5F)ncnc4cc3OC)C[C@@H]21
experimentalTarget: ErbB2 WT (Homo sapiens (Human))
pIC50: 7.74
--
compound: C=CC(=O)N1C[C@@H]2C[C@H]1CN2c1ccc2ncnc(Nc3ccc(Oc4ccn5ncnc5c4)c(Cl)c3F)c2n1
experimentalTarget: ErbB2 WT (Homo sapiens (Human))
pIC50: 7.90
--
compound: C=CC(=O)N1CCN(c2ccc3ncnc(Nc4ccc(Oc5ccn6ncnc6c5)c(Cl)c4F)c3n2)CC1(C)C
experimentalTarget: ErbB2 WT (Homo sapiens (Human))
pIC50: 8.12
--
compound: C=CC(=O)N1CCCC(c2ccc3ncnc(Nc4ccc(Oc5ccc6c(c5)ncn6C)c(C)c4)c3n2)CC1 (stereo not shown)
experimentalTarget: ErbB2 WT (Homo sapiens (Human))
pIC50: 7.51
--
compound: C=CC(=O)N1[C@@H]2CC[C@H]1C[C@@H](c1ccc3ncnc(Nc4ccc(Oc5cnc6c(c5)ncn6C)c(C)c4)c3n1)C2
experimentalTarget: ErbB2 WT (Homo sapiens (Human))
pIC50: 6.95
--
compound: C=CC(=O)N1CCN(c2ccc3ncnc(Nc4ccc(Oc5ccn6ncnc6c5)c(C)c4F)c3n2)CC1
experimentalTarget: ErbB2 WT (Homo sapiens (Human))
pIC50: 7.78
